Test system: Human immunodeficiency virus 1
method_description: Antiviral activity against HIV1 harboring mutant protease with matrix Y79F mutant infected in HEK293T cells assessed as inhibition of viral replication after 48 hrs by luciferase assay
Type: functional, organism-based
condition_notes: HEK-293T
Active and inactive are the calls of the source. The rule behind the calls is not given here.
parameter: inhibition

COC(=O)N[C@H](C(=O)N[C@@H](Cc1ccccc1)[C@@H](O)CN(Cc1ccc(-c2ccccn2)cc1)NC(=O)[C@@H](NC(=O)OC)C(C)(C)C)C(C)(C)C :: inactive
Cc1cccc(C)c1OCC(=O)N[C@@H](Cc1ccccc1)[C@@H](O)C[C@H](Cc1ccccc1)NC(=O)[C@H](C(C)C)N1CCCNC1=O [LOPINAVIR] :: inactive
CC(C)(C)NC(=O)[C@@H]1CN(Cc2cccnc2)CCN1C[C@@H](O)C[C@@H](Cc1ccccc1)C(=O)N[C@H]1c2ccccc2C[C@H]1O.O [INDINAVIR] :: inactive
CC(C)CN(C[C@@H](O)[C@H](Cc1ccccc1)NC(=O)O[C@H]1CCOC1)S(=O)(=O)c1ccc(N)cc1 [AMPRENAVIR] :: inactive
Cc1c(O)cccc1C(=O)N[C@@H](CSc1ccccc1)[C@H](O)CN1C[C@H]2CCCC[C@H]2C[C@H]1C(=O)NC(C)(C)C [NELFINAVIR] :: inactive
